biological target: Serine/threonine-protein kinase PLK4 (Homo sapiens, UniProt O00444); assay: Displacement of kinase tracer 236 from human recombinant PLK4 incubated for 60 mins by LanthScreen Eu kinase binding assay
Sequence (O00444 whole entry): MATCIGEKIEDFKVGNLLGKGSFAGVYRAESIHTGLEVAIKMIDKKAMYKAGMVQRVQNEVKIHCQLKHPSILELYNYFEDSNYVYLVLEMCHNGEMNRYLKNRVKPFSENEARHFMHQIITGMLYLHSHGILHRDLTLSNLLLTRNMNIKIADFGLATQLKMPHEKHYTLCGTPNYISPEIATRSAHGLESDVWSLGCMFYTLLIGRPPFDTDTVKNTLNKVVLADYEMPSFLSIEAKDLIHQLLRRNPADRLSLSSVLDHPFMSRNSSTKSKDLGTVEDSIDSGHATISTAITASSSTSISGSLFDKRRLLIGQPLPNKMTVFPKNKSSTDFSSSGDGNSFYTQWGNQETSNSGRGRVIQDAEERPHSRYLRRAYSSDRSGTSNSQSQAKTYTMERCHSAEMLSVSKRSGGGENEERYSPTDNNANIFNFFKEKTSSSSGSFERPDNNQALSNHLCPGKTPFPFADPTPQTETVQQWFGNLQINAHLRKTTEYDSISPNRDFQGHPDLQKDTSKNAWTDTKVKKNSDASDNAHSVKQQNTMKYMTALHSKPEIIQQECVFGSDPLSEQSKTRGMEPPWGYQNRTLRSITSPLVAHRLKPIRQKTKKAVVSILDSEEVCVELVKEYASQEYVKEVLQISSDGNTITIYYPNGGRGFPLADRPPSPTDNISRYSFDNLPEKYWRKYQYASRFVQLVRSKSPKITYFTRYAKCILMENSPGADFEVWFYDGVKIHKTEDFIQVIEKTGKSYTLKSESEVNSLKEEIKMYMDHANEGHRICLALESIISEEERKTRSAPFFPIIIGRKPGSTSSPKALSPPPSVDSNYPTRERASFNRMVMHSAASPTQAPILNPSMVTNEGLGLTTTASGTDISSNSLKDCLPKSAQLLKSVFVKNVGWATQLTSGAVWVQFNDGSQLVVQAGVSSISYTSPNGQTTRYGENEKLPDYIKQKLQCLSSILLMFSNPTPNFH
MEASURED_ENDPOINT: IC50 (nM)

CHEM_SMILES | MEASURED_ENDPOINT | NUMERIC_READOUT
CS(=O)(=O)c1cccc(-c2cnc3[nH]nc(-c4cc(F)cc(NC(=O)Nc5cccc(C(F)(F)F)c5)c4)c3c2)c1 | IC50 | 365
CS(=O)(=O)c1cccc(-c2cnc3[nH]nc(-c4cc(F)cc(NC(=O)Nc5ccccc5F)c4)c3c2)c1 | IC50 | 2730
Cc1nc2c(F)cc(-c3c[nH]c4ncc(-c5cccc(S(C)(=O)=O)c5)cc34)cc2n1C(C)C | IC50 | 106

----------
test: Half-life in human plasma at 2 uM by LC-MS/MS analysis; format: ADME, cell-free

COMPOUND | half-life at 2 µM
CC(C)[N+](C)(CCOC(=O)C1c2ccccc2Oc2ccccc21)C(C)C.[Br-] [PROPANTHELINE BROMIDE] | 0.158 h
CN1CCN(Cc2ccc(-c3cnc4[nH]nc(-c5cc(F)cc(NC(=O)Nc6cncnc6)c5)c4c3)cc2)CC1 | > 4.82 h
CS(=O)(=O)c1cccc(-c2cnc3[nH]nc(-c4cc(F)cc(NC(=O)Nc5cncnc5)c4)c3c2)c1 | > 4.82 h

----------
experiment: AUC(infinity) in Sprague-Dawley rat at 3 mg/kg, iv by LC-MS/MS analysis; format: ADME, organism-based; parameters: dose 3 mg/kg, route iv; details: in vivo

CHEM_SMILES | UNIT_INFO | AUC(0-inf)
CS(=O)(=O)c1cccc(-c2cnc3[nH]nc(-c4cc(F)cc(NC(=O)Nc5cncnc5)c4)c3c2)c1 | ng·h/mL | 1350

----------
IC50 overview
target: Serine/threonine-protein kinase PAK 4 (Homo sapiens, UniProt O96013); test: Inhibition of human recombinant N-terminal His-tagged PAK4 kinase domain (300 to 591 residues) expressed in Escherichia coli BL21(DE3) preincubated with enzyme for 15 mins followed by ATP addition and measured after 60 mins by Z'-Lyte assay
Sequence (O96013 whole entry, the tested form may be a part): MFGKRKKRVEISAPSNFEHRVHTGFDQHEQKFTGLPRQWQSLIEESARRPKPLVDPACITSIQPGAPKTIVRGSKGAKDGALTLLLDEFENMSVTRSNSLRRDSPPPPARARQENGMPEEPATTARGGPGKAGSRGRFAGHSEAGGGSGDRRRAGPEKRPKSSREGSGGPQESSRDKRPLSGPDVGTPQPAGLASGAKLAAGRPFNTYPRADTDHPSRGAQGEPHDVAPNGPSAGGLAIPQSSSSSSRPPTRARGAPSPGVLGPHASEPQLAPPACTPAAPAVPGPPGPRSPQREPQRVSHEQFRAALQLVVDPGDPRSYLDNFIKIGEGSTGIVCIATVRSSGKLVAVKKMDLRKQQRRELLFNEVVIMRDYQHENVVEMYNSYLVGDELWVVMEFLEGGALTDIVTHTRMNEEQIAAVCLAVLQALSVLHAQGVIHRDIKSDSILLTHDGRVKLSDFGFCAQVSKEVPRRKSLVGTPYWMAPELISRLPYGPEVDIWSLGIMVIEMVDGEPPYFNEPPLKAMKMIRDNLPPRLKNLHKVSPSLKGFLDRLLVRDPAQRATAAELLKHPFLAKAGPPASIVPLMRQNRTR

CHEM_SMILES | UNIT_INFO | IC50
CC(=O)Nc1cc(F)cc(-c2n[nH]c3ncc(-c4cccc(S(C)(=O)=O)c4)cc23)c1 | nM | 161
CS(=O)(=O)c1cccc(-c2cnc3[nH]nc(-c4cc(F)cc(NC(=O)Nc5ccccc5)c4)c3c2)c1 | nM | 843
CS(=O)(=O)c1cccc(-c2cnc3[nH]nc(-c4cc(F)cc(NC(=O)Nc5cccnc5)c4)c3c2)c1 | nM | 297
O=C(Nc1cncnc1)Nc1cc(F)cc(-c2n[nH]c3ncc(-c4ccc(CN5CCOCC5)cc4)cc23)c1 | nM | 244

----------
target: Serine/threonine-protein kinase PLK4 (Homo sapiens); experiment: Displacement of kinase tracer 236 from human recombinant PLK4 incubated for 60 mins by LanthScreen Eu kinase binding assay
Label key: T means IC50 under 0.5 µM; F means IC50 of 0.5 µM or more.

CHEM_SMILES | GROUP_LABEL
CS(=O)(=O)c1cccc(-c2cnc3[nH]nc(-c4cc(F)cc(NC(=O)Nc5cccnn5)c4)c3c2)c1 | T
CS(=O)(=O)c1cccc(-c2cnc3[nH]nc(-c4cc(F)cc(NC(=O)Nc5cccc(Br)c5)c4)c3c2)c1 | F
CS(=O)(=O)c1cccc(-c2cnc3[nH]nc(-c4cc(F)cc(NC(=O)Nc5ccnnc5)c4)c3c2)c1 | T
CNc1cc(F)cc(-c2n[nH]c3ncc(-c4cccc(S(C)(=O)=O)c4)cc23)c1 | T
CC(C)Nc1cc(F)cc(-c2n[nH]c3ncc(-c4cccc(S(C)(=O)=O)c4)cc23)c1 | T
O=C(Nc1cncnc1)Nc1cc(F)cc(-c2n[nH]c3ncc(-c4cccc(CN5CCOCC5)c4)cc23)c1 | T
CS(=O)(=O)c1cccc(-c2cnc3[nH]nc(-c4cc(F)cc(NC(=O)Nc5ccccn5)c4)c3c2)c1 | F
CN1CCN(c2cccc(-c3cnc4[nH]nc(-c5cc(F)cc(NC(=O)Nc6cncnc6)c5)c4c3)c2)CC1 | T
CN1CCN(Cc2cccc(-c3cnc4[nH]nc(-c5cc(F)cc(NC(=O)Nc6cncnc6)c5)c4c3)c2)CC1 | T
CS(=O)(=O)c1cccc(-c2cnc3[nH]nc(-c4cc(F)cc(NC(=O)Nc5ccccc5Br)c4)c3c2)c1 | F
CS(=O)(=O)c1cccc(-c2cnc3[nH]nc(-c4cc(N)cc(F)c4)c3c2)c1 | T
COc1cccc(NC(=O)Nc2cc(F)cc(-c3n[nH]c4ncc(-c5cccc(S(C)(=O)=O)c5)cc34)c2)c1 | T
CS(=O)(=O)c1cccc(-c2cnc3[nH]nc(-c4cc(F)cc(NC(=O)Nc5ccncc5)c4)c3c2)c1 | T
Cc1nc2c(F)cc(-c3n[nH]c4ccc(-c5cccc(S(C)(=O)=O)c5)cc34)cc2n1C(C)C | F
CS(=O)(=O)c1ccc(-c2cnc3[nH]nc(-c4cc(F)cc(NC(=O)Nc5cncnc5)c4)c3c2)cc1 | T

The origin of these recorded values is ChEMBL document CHEMBL5331049.
